Target: T1, human C-MET His tagged, monomeric (human, UniProt P08581 25-932)
T1 construct: also called monomeric human C-MET; biotinylated human C-MET-His
T1 sequence (P08581 25-932): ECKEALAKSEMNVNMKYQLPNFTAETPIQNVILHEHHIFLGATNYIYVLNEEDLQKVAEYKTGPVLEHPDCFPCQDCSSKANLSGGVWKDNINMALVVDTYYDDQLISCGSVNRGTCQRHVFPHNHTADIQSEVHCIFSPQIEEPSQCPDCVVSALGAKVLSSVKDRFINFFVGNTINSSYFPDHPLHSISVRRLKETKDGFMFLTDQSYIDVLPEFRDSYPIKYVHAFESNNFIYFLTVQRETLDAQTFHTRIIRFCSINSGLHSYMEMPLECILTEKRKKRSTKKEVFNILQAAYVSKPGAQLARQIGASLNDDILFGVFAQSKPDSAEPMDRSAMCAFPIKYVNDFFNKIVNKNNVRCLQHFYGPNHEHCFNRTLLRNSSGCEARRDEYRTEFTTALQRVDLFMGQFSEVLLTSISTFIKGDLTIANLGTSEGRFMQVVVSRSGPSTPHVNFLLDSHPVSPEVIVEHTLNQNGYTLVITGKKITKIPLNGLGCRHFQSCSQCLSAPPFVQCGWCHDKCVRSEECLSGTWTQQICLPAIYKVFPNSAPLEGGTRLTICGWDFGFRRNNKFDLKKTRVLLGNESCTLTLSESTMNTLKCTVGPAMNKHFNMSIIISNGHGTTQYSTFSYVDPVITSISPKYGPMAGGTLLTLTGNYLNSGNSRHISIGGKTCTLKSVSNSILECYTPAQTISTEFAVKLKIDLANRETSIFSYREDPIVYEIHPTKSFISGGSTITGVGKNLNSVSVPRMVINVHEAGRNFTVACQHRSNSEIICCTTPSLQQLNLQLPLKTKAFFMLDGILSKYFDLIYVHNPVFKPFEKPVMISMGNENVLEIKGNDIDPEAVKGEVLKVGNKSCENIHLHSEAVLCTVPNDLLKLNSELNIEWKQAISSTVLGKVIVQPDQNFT
Assay: SPR Biacore, IgG captured, monomeric C-MET-His analyte
resultType: kon (M⁻¹ s⁻¹)
Numbers only, in M⁻¹ s⁻¹.

Illustrative cases are given below, each with its answer.
MH7-2 (antibody, human IgG4, V domains shown) VH: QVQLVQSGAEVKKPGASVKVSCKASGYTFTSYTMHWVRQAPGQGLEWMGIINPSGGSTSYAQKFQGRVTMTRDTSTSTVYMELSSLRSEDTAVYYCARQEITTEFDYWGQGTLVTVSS VL: EIVLTQSPGTLSLSPGERATLSCRASQSVSSYANSYLHWYQQKPGQAPRLLIYRGSTRETGIPDRFSGSGSGTDFTLTISRLEPEDFAVYYCQQSKESPLTFGGGTKVEIK; 93200
08G07 (antibody, human IgG4, V domains shown) VH: QVQLVQSGAEVKKPGASVKVSCKASGYTFTSYTMHWVRQAPGQGLEWMGWINPSGGLANYAQKFQGRVTMTRDTSTSTVYMELSSLRSEDTAVYYCARSEITTDFDYWGQGTLVTVSS VL: EIVLTQSPGTLSLSPGERATLSCRASQSVDSYANSYLHWYQQKPGQAPRLLIYRGSTRESGIPDRFSGSGSGTDFTLTISRLEPEDFAVYYCQQSKSEPLTFGGGTKVEIK; 63400

Input: What measured kon goes with MH7 (antibody, human IgG4, V domains shown) VH: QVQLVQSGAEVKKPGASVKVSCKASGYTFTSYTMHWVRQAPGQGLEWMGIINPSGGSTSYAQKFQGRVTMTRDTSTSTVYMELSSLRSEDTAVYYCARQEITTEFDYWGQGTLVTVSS VL: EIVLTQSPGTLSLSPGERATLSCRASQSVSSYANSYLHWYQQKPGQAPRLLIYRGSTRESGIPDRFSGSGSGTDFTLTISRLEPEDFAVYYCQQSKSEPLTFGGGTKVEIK ?
Output: 98000
